Below: a set of entries, each annotated with reported growth.
Test system: SNB-19 CNS
Assay: NCI-60 one-dose screen, 48 h (100 = growth as untreated, 0 = no growth, -100 = all killed)
Details: 10 µM
Procedure: Growth inhibition of the SNB-19 human tumor cell line is measured as a screen for anti-cancer activity. Cells are grown in 96 well plates and exposed to the test compound for 48 hours. Compounds are tested at a single concentration, which is 10^-5 M for most compounds. The reported endpoint is percent growth (GI% or GIPRCNT), where numbers from 0 - 100% represent growth inhibition, and numbers from -100% - 0 represent cell death. For example, a value of 40 represents 60% growth inhibition. […]
Compounds without any hit were thinned out: in the full panel of roughly 83,000, 20% have a hit.
Answer in %, number only, no unit symbol.

The cases that follow already have their growth on record.
# compound, assayed target, readout units, growth
records = [
    ("COC(=O)CC[C@@H](C)[C@H]1CC[C@H]2[C@@H]3CC[C@@H]4C[C@H](O)CC[C@]4(C)[C@H]3C[C@H](O)[C@]12C", "SNB-19 CNS", "%", 105),
    ("O=C(CCCSc1nc(-c2ccccc2)cc(-c2ccc(Cl)cc2)n1)NO", "SNB-19 CNS", "%", 20.1),
    ("CCOC(=O)c1cocc1C(=O)O", "SNB-19 CNS", "%", 107),
    ("CSc1nc(S(C)(=O)=O)nc2[nH]c(=O)[nH]c12", "SNB-19 CNS", "%", 99.8),
]

### Prompt Which growth reading was recorded for the compound COc1ccc(Cl)cc1Nc1nc(C(F)(F)F)ccc1C(=O)N/N=C/c1ccc(Cl)cc1 ?
### Response 60.2

### Prompt Which growth reading was recorded for the compound CCc1ccc(C2=NN(c3ccc(S(C)(=O)=O)cc3)C(=O)CC2)cc1 ?
### Response 51.5

### Prompt Which growth reading was recorded for the compound Clc1ccc(/C=C2\CCCC3C2=Nc2ccccc2NC3c2ccc(Cl)cc2)cc1 (centres undefined) ?
### Response 92

### Prompt Which growth reading was recorded for the compound Cc1ccc(S(=O)(=O)N(C)CCCCCC(=O)O)cc1 ?
### Response 108

### Prompt Which growth reading was recorded for the compound Cc1cc(C(C#N)c2ccc(Cl)cc2)c(Cl)cc1NC(=O)c1cc(I)cc(I)c1O (centres undefined) ?
### Response 39.3

---

Below: a set of entries, each annotated with reported growth.
System: SF-295 CNS
Experiment: NCI-60 one-dose screen, 48 h (100 = growth as untreated, 0 = no growth, -100 = all killed)
Conditions: 10 µM
Method: Cells are grown in 96 well plates and exposed to the test compound for 48 hours. Compounds are tested at a single concentration, which is 10^-5 M for most compounds. The reported endpoint is percent growth (GI% or GIPRCNT), where numbers from 0 - 100% represent growth inhibition, and numbers from -100% - 0 represent cell death. For example, a value of 40 represents 60% growth inhibition. A value of 0 means no net growth occurred over the course of the experiment. […]
This is part of a sample that, as a whole, favours compounds with a hit. Of some 83,000 tested, about 20% had one in any assay.
Answer in %, number only, no unit symbol.

The cases that follow already have their growth on record.
# compound, result type, test result
data = [
    ("COc1ccc(-c2onc(N)c2-c2cc(OC)c3c(c2)OCO3)cc1", "growth", 14.3),
    ("CN1C(=O)C2(Nc3cc(Cl)ccc3S2)c2cc(Cl)ccc21 (centres undefined)", "growth", 99.3),
]

### Prompt Notebook entry, SF-295 CNS assay: growth of O=C1c2ccccc2C(=O)c2c1ccc(C(Br)Br)c2[N+](=O)[O-] = ?
### Response 92.8
